ASSAY DETAILS: Stability of peptides in human plasma
Type: in vitro ADME
ASSAY SETUP: human, plasma
Protocol: b) Stability of Peptides in Human Plasma, Simulated Gastric Fluid, Intestinal Fluid and Liver Microsomes (Ex-Vivo): Different short-chain peptides (final concentration 2 μM) were incubated with either pooled human plasma (7.5 μL) or simulated gastric fluid (pH 1.5; composition HCl, NaCl and Pepsin) or simulated intestinal fluid (pH 7.5) or human liver microsomes, for 0, 2, 4, 6, 12 and 24 h (37° C.; 50 mM triethanolamine-HCl buffer; pH 7.8). […]
Where a SMILES comes first, the peptide text is derived from it. [ ]: non-standard residue; d: D form. ξ: configuration not given here. ξBip(2'-Et-4'-OMe) = CCc1cc(OC)ccc1-c1ccc(CC(N)C(=O)O)cc1; ξαMePhe(2-F) = CC(N)(Cc1ccccc1F)C(=O)O; hhPhe = N[C@@H](CCCc1ccccc1)C(=O)O; hArg = N=C(N)NCCCC[C@H](N)C(=O)O; hCit = NC(=O)NCCCC[C@H](N)C(=O)O; Cit = NC(=O)NCCC[C@H](N)C(=O)O; ξαMeF = CC(N)(Cc1ccccc1)C(=O)O; Nle = CCCC[C@H](N)C(=O)O; Ac5c = NC1(C(=O)O)CCCC1; Ac3c = NC1(C(=O)O)CC1; Aib = CC(C)(N)C(=O)O
Consider the following compounds and their measured half-life readings.
The reply should contain only the number, in h.

CCCC[C@H](NC(=O)C(C)(Cc1ccccc1F)NC(=O)[C@H](CCC(N)=O)NC(=O)[C@@H](NC(=O)[C@H](CCC(=O)O)NC(=O)C(C)(C)NC(=O)[C@@H](NC(=O)C1(N)CCCC1)C(C)C)[C@@H](C)CC)C(=O)N[C@@H](Cc1c[nH]cn1)C(=O)N[C@@H](CCC(N)=O)C(=O)N[C@@H](CCCCNC(N)=O)C(=O)N[C@@H](C)C(=O)N[C@@H](CCCNC(N)=O)C(=O)NC(C)(Cc1ccccc1F)C(N)=O (stereo partly shown) [Seq. ID. 411] (H-[Ac5c]V[Aib]EIQ[ξαMePhe(2-F)][Nle]HQ[hCit]A[Cit][ξαMePhe(2-F)]-NH2); 8
CCCC[C@H](NC(=O)[C@H](CC(C)C)NC(=O)[C@H](CCC(N)=O)NC(=O)[C@@H](NC(=O)[C@H](CCC(=O)O)NC(=O)C1(NC(=O)[C@@H](NC(=O)C2(N)CC2)C(C)C)CC1)[C@@H](C)CC)C(=O)N[C@@H](Cc1c[nH]cn1)C(=O)N[C@@H](CCC(N)=O)C(=O)N[C@@H](CCCCNC(=N)N)C(=O)N[C@@H](C)C(=O)N[C@@H](CCCCN)C(=O)NC(Cc1ccc(-c2ccc(OC)cc2CC)cc1)C(=O)N[C@@H](CCCc1ccccc1)C(N)=O (stereo partly shown) [Seq. ID. 610] (H-[Ac3c]V[Ac3c]EIQL[Nle]HQ[hArg]AK[ξBip(2'-Et-4'-OMe)][hhPhe]-NH2); 8

The record that follows has no half-life shown yet.
Return reported half-life; argument: CC[C@H](C)[C@H](NC(=O)[C@H](CCC(=O)O)NC(=O)C(C)(C)NC(=O)[C@@H](NC(=O)C1(N)CC1)C(C)C)C(=O)N[C@@H](CCC(N)=O)C(=O)N[C@@H](CC(C)C)C(=O)N[C@@H](CCSC)C(=O)N[C@@H](Cc1c[nH]cn1)C(=O)N[C@@H](CCC(N)=O)C(=O)N[C@@H](CCCCNC(=N)N)C(=O)NC(C)(C)C(=O)N[C@@H](CCCCN)C(=O)NC(C)(Cc1ccccc1)C(N)=O (stereo partly shown) [Seq. ID. 14] (H-[Ac3c]V[Aib]EIQLMHQ[hArg][Aib]K[ξαMeF]-NH2) 8

Value source: patent US8383581B2
